Data origin: IntAct's records for PubMed 26483485

B1: Cell adhesion molecule CEACAM6 (Homo sapiens), P40199 (parent)
chain: MGPPSAPPCRLHVPWKEVLLTASLLTFWNPPTTAKLTIESTPFNVAEGKEVLLLAHNLPQNRIGYSWYKGERVDGNSLIVGYVIGTQQATPGPAYSGRETIYPNASLLIQNVTQNDTGFYTLQVIKSDLVNEEATGQFHVYPELPKPSISSNNSNPVEDKDAVAFTCEPEVQNTTYLWWVNGQSLPVSPRLQLSNGNMTLTLLSVKRNDAGSYECEIQNPASANRSDPVTLNVLYGPDVPTISPSKANYRPGENLNLSCHAASNPPAQYSWFINGTFQQSTQELFIPNITVNNSGSYMCQAHNSATGLNRTTVTMITVSGSAPVLSAVATVGITIGVLARVALI

- Variants of: B1
- Experimental Conditions: with ceam8_human CEACAM8, P31997
- Sequence (P31997 whole entry): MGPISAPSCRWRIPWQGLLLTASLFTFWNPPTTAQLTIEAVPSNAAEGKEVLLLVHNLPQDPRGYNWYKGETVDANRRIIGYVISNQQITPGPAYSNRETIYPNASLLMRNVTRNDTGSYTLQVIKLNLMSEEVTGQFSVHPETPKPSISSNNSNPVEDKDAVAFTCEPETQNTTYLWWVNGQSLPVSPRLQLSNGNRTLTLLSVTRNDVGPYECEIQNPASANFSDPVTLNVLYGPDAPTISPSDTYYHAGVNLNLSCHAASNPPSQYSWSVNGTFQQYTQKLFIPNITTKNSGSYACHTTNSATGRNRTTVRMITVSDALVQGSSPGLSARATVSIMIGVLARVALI
Endpoint Name: effect of a mutation on the interaction

Q123A ... with no effect
L78A ... with no effect
